Reported ΔGexp is given for each of the following molecules.
TARGET ENTITY: recombinant human ASK1 protein (catalytic domain, residues 659–951) (Homo sapiens, UniProt Q99683)
Construct: The catalytic domain of ASK1 (encoding residues 659–951) was modified to include an N-terminal 6XHis tag; 6XHis (N); made in house; host or cells: E. coli Rosetta2 (DE3)
Sequence (Q99683 659-951): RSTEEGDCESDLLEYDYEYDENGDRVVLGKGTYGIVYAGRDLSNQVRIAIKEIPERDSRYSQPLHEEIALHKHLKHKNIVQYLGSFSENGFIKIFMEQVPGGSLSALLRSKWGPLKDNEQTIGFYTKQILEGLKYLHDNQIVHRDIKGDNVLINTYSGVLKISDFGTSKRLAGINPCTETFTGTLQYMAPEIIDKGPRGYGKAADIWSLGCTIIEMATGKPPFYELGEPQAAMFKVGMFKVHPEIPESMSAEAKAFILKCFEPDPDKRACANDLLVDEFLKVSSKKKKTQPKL
PROTOCOL DETAILS: ASK1 enzyme inhibition assay (ADP-Glo)
Type: biochemical
MEASUREMENT CONTEXT: estimated from IC50 using ΔG = RTln(IC50), 298 K
Description: The recombinant human ASK1 protein was expressed in E. coli Rosetta2 (DE3) in LB medium, containing 100 µg/mL ampicillin and 34 µg/mL chloramphenicol. A total of 2 mL overnight culture was diluted 100-fold into 200 mL LB and grown at 37 °C with shaking at 200 rpm until the OD600 reached 0.8. Subsequently, 0.5 mM IPTG was added, and protein expression was induced overnight at 20 °C. The IC50 value for each inhibitor was determined using the ADP-Glo™ protocol. […]
MEASURE NAME: ΔGexp (kcal/mol)

query_smiles=CC(C)n1cnnc1-c1cccc(NC(=O)N2CCCc3ccccc32)n1 measure_name=ΔGexp display_unit=kcal/mol recorded_measurement=-11.64
query_smiles=CC(C)n1cnnc1-c1cccc(NC(=O)N2CCc3ccc(OC(F)(F)F)cc32)n1 measure_name=ΔGexp display_unit=kcal/mol recorded_measurement=-8.21
query_smiles=COc1ccc2c(c1)CCN2C(=O)Nc1cccc(-c2nncn2C(C)C)n1 measure_name=ΔGexp display_unit=kcal/mol recorded_measurement=-10.01
query_smiles=COc1ccc2c(c1)N(C(=O)Nc1cccc(-c3nncn3C(C)C)n1)CC2 measure_name=ΔGexp display_unit=kcal/mol recorded_measurement=-12.02
query_smiles=CC(C)n1cnnc1-c1cccc(NC(=O)N2CCc3ccccc3C2)n1 measure_name=ΔGexp display_unit=kcal/mol recorded_measurement=-7.21
query_smiles=CC(C)n1cnnc1-c1cccc(NC(=O)N2CCCC2)n1 measure_name=ΔGexp display_unit=kcal/mol recorded_measurement=-7.41
query_smiles=CC(C)n1cnnc1-c1cccc(NC(=O)N2CCc3cc(C(F)(F)F)ccc32)n1 measure_name=ΔGexp display_unit=kcal/mol recorded_measurement=-8.85

----------
Reported pIC50 is given for each of the following molecules.
TARGET ENTITY: recombinant human ASK1 protein (catalytic domain, residues 659–951) (Homo sapiens)
Construct: The catalytic domain of ASK1 (encoding residues 659–951) was modified to include an N-terminal 6XHis tag; 6XHis (N)
PROTOCOL DETAILS: ASK1 enzyme inhibition assay (ADP-Glo)
MEASUREMENT CONTEXT: mean ± SEM, n = 3 experiments; 25 μM ATP, 0.1 μg/μL MBP, ADP-Glo
pIC50: −log10 of the molar value.
MEASURE NAME: pIC50

molecule="CC(C)n1cnnc1-c1cccc(NC(=O)N2CCc3ccc(OC(F)(F)F)cc32)n1 [Compound 3]" recorded_measurement=6.02
molecule="CC(C)n1cnnc1-c1cccc(NC(=O)N2CCCc3ccccc32)n1 [Compound 6]" recorded_measurement=8.53
molecule="COc1ccc2c(c1)N(C(=O)Nc1cccc(-c3nncn3C(C)C)n1)CC2 [Compound 2]" recorded_measurement=8.81
molecule="CC(C)n1cnnc1-c1cccc(NC(=O)N2CCCC2)n1 [Compound 1]" recorded_measurement=5.44
